B1: Hairpin Ribozyme (parent)
chain: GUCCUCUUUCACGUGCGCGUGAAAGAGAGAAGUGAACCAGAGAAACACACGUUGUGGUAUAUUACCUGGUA

Variants of: B1
Test Description: self-cleavage, relative activity (ratio to wild type); higher = more cleavage; co-transcriptional
Measurement Kind: self-cleavage

GUCCUCUUUCACGUGCGCGUGAAAGACAGAAGUGCACCAGAGAAACACACGUUGUGGUAUAUUACCUGGUA : 0.143
GGCCUCUUUCACGUGCGCGUGAAAGAGAGAAGUGAACCAGAGAAACACACGUUGUGGUACAUUACCUGGUA : 0.373
GUCCUCUUUUACGUGCGCGUGAAAGAGAGAAGUGAACCAGAGAUACACACGUUGUGGUAUAUUACCUGGUA : 0.187
GUCCUCUUUCACGUGCGCGUGAAUGAGAGAAGUGUACCAGAGAAACACACGUUGUGGUAUAUUACCUGGUA : 0.584
GUCCUCUUUCACGUGCGCGUGAAAGAGAGAAGUGAACCAGAGAACCACACGUUGUGGUAUAUUAGCUGGUA : 0.0639
GUCCUCUUUCACGUGCGCGUGAAAGAGAGAAGUGAACCAGAGAAAUACACGUCGUGGUAUAUUACCUGGUA : 0.235
GUCCUCUUUCACGUGCGCGUGAAAGAGAGAAGUGAACCAGAGAAGCACGCGUUGUGGUAUAUUACCUGGUA : 0.177
GUCCUCUUUCACGUGCGCGUGAAAGAGAGUAGUGAACCAGAGAAACACACGUUGUGGUAUAUGACCUGGUA : 0.0835
GUCCUCUUUCACGUGCGCGUGAAAGAGAGAAGUGAACCAUAGAAACACACGUUGUGGGAUAUUACCUGGUA : 0.183
GUCCGCUUUCACGUGCGCGUGAACGAGAGAAGUGAACCAGAGAAACACACGUUGUGGUAUAUUACCUGGUA : 0.273
GUCCUCUUUCACGUGCGCGUGAAAGAGAGACGUGAACCAGAGAAACACACGUUGUGGUAUAUCACCUGGUA : 0.23
GUCCUCUCUCACGUGCGCGUGAAAGAGAGAAGUGAACCAGAGAAACACACGUUGUGAUAUAUUACCUGGUA : 0.119
GUCCUCUUUCACGUGCGCGUGAAAGAGAGAAGUGAGCCAGAGAAACAGACGUUGUGGUAUAUUACCUGGUA : 0.259
GUCCUCUUUCACGUGCGCGUGAAAGAGAUAAGUGAACCAGAGAAACACACGUUCUGGUAUAUUACCUGGUA : 0.12
GUCCUCUUACACGUGCGCGUGAAAGAGAGAAGUGAACCAGAGAAACACACGUUGUGGUAUAUUACCUGGUU : 0.525
GUCCUCUUUCACGUGCGCGUGAAAGAGAGAAGUGAACCAGCGCAACACACGUUGUGGUAUAUUACCUGGUA : 0.0734
GUCCUCUUUCACGUGCGCGUGAAAGAGAGAAGUGAACCAGAGAAACACACGUUGUGGUAUACUACCUCGUA : 0.223
GUCCUCUUUCACGUGCGCGUGAAAGAGAAAAGUGAACCAGAGAAACACACGUUGUGGAAUAUUACCUGGUA : 0.165
GUCCUCUUUGACGUGCGCGUGAAAGAGAGAUGUGAACCAGAGAAACACACGUUGUGGUAUAUUACCUGGUA : 0.084
CUCCUCUUUCACGUGCGCGUGAAAGAGAGAUGUGAACCAGAGAAACACACGUUGUGGUAUAUUACCUGGUA : 0.163
GUCCUCUUUCACGUGCGCGUGAAAGAGAGAAGUGAACCAGAGAAACCCACGUUGUGGUAUAUUACCGGGUA : 0.123
GUCCUCUUUCACGUGCGCGUGAAGGAGAGAAGUGAACCAGAGAAACACACGUUGUGGUAUAUUACCUGUUA : 0.13
GUCCUCUUUCACGUGCGCGUGAAAGAGAGAAGUGAACCAGACAAACACACGUUGUGGUAUUUUACCUGGUA : 0.136
GUCCUCUUUCACGUGCGCGUGAAAGAGAGAAGUGAACCAUAGAAACACACGUUGUGGUAUAUUACCUGGGA : 0.0618
GUCCUCUUUCACGUGCGCGUGAAAGAGAGAAGUGAACCAGAGAAAAACACGUUCUGGUAUAUUACCUGGUA : 0.129
GUCCUCUUUCACGUGCGCGUGAAAGAGAGAAGUAAACCAGAGAAACACACGUUGUGGUAUCUUACCUGGUA : 0.336
GUCCUCUUUCACGUUCGCGUGAAAGAGAGAAGUGAACCAGAGAAACACACGUUUUGGUAUAUUACCUGGUA : 0.632
